studyTarget: DENV MTase
assayComment: DENV MTase enzymatic inhibition assay
conditionDetails: read-out: IC50 against DENV MTase
reportedProperty: pIC50
As a rule, pIC50 stands for the negative log10 of the concentration, concentration in M.

Return pIC50 (reported value) for this compound: `O=C(Nc1ccc2c(c1)C(=O)NC2=O)c1cc2cc([N+](=O)[O-])ccc2s1`
4.16

====

assayComment: Stability test in human plasma
Type: in vitro ADME
conditionDetails: pH 7.4, 37 °C, up to 24 h, read-out: Plasma Stab. (T1/2, h ± SD) (converted)
reportedProperty: half-life

Return half-life (reported value) for this molecule: `Cc1cccc2cc(C(=O)Nc3ccc4c(c3)C(=O)N(C)C4=O)sc12`
> 1440 min

Return half-life (reported value) for this molecule: `CN1C(=O)c2ccc(NC(=O)c3cc4cc([N+](=O)[O-])ccc4o3)cc2C1=O`
439 min

Return half-life (reported value) for this molecule: `CN1C(=O)c2ccc(NC(=O)c3cc4cccc(Cl)c4s3)cc2C1=O`
> 1440 min

Return half-life (reported value) for this molecule: `CN1C(=O)c2ccc(NC(=O)c3cc4cc(Cl)ccc4s3)cc2C1=O`
> 1440 min

====

assayComment: Metabolic stability in human liver microsomes
Format: in vitro ADME
conditionDetails: 1 h, 37 °C, three experiments
reportedProperty: HLM Stab.% ± SD (percentage of non-metabolized compound) (%)
Numbers only here, please. The scale is %.

Return HLM Stab.% ± SD (percentage of non-metabolized compound) (reported value) for this molecule: CN1C(=O)c2ccc(NC(=O)c3cc4cc([N+](=O)[O-])ccc4o3)cc2C1=O [Compound 8]
96.93

Return HLM Stab.% ± SD (percentage of non-metabolized compound) (reported value) for this molecule: Cc1cccc2cc(C(=O)Nc3ccc4c(c3)C(=O)N(C)C4=O)sc12 [Compound 20]
98.40

Return HLM Stab.% ± SD (percentage of non-metabolized compound) (reported value) for this molecule: CN1C(=O)c2ccc(NC(=O)c3cc4cccc(Cl)c4s3)cc2C1=O [Compound 17]
96.39

Return HLM Stab.% ± SD (percentage of non-metabolized compound) (reported value) for this molecule: CN1C(=O)c2ccc(NC(=O)c3cc4cc(Cl)ccc4s3)cc2C1=O [Compound 15]
98.57

====

assayComment: Median lethal dose assessment in Tenebrio molitor coleoptera
Type: in vivo
conditionDetails: in vivo, 200 mg/kg, single dose into hemocoel, 7 days observation
Experimental: The median lethal dose (LD50) was determined for compound 17 in a Tenebrio molitor coleoptera (TMC) toxicity model published previously. Due to ethical reasons, and according to the 3Rs principle, the insect model was preferred to the murine model to preliminarily evaluate the potential in vivo toxicity. […] The experiment was repeated until LD50 was determined and finally confirmed with ten TMCs. […]
reportedProperty: LD50 at 7 days
Answer with the figure and its unit, nothing else.

Return LD50 at 7 days (reported value) for this compound: `CN1C(=O)c2ccc(NC(=O)c3cc4cccc(Cl)c4s3)cc2C1=O`
150 mg/kg

====

Consider the following pIC50 values measured on ZIKV NS5 MTase (Zika virus, UniProt A0A024B7W1).
Sequence (A0A024B7W1 2524-2798): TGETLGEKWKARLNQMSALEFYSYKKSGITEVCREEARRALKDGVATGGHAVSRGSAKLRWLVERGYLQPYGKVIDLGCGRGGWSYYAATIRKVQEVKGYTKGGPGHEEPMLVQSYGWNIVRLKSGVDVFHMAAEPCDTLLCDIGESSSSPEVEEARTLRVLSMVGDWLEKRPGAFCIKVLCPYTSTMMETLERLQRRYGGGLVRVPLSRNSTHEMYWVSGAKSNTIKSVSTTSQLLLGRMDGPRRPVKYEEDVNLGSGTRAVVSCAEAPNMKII
As a rule, pIC50 stands for the negative log10 of the concentration, concentration in M.

Give pIC50 for `CN1C(=O)c2ccc(NC(=O)c3cc4cc([N+](=O)[O-])ccc4s3)cc2C1=O` tested on ZIKV NS5 MTase (Zika virus, UniProt A0A024B7W1).
4.78

Give pIC50 for `CN1C(=O)c2ccc(NC(=O)c3cc4cccc(Cl)c4s3)cc2C1=O` tested on ZIKV NS5 MTase (Zika virus, UniProt A0A024B7W1).
4.94

Give pIC50 for `CN1C(=O)c2ccc(NC(=O)c3cc4ccccc4s3)cc2C1=O` tested on ZIKV NS5 MTase (Zika virus, UniProt A0A024B7W1).
4.51

Give pIC50 for `Cc1ccc2sc(C(=O)Nc3ccc4c(c3)C(=O)N(C)C4=O)cc2c1` tested on ZIKV NS5 MTase (Zika virus, UniProt A0A024B7W1).
4.40

Give pIC50 for `NS(=O)(=O)c1cccc(NC(=O)c2cc3cc([N+](=O)[O-])ccc3s2)c1` tested on ZIKV NS5 MTase (Zika virus, UniProt A0A024B7W1).
4.47

Give pIC50 for `NC(=O)c1ccc(NC(=O)c2cc3ccccc3s2)cc1` tested on ZIKV NS5 MTase (Zika virus, UniProt A0A024B7W1).
4.44

Give pIC50 for `NC(=O)c1ccc(NC(=O)c2cc3cc([N+](=O)[O-])ccc3s2)cc1` tested on ZIKV NS5 MTase (Zika virus, UniProt A0A024B7W1).
4.43

Give pIC50 for `CN1C(=O)c2ccc(NC(=O)c3sc4ccccc4c3Cl)cc2C1=O` tested on ZIKV NS5 MTase (Zika virus, UniProt A0A024B7W1).
4.88

Give pIC50 for `CN1C(=O)c2ccc(NC(=O)c3cc4c(Cl)cccc4s3)cc2C1=O` tested on ZIKV NS5 MTase (Zika virus, UniProt A0A024B7W1).
4.00

Give pIC50 for `O=C(O)c1ccc(NC(=O)c2cc3cc([N+](=O)[O-])ccc3s2)cc1` tested on ZIKV NS5 MTase (Zika virus, UniProt A0A024B7W1).
4.30

Give pIC50 for `CN1C(=O)c2ccc(NC(=O)c3cc4cc(Cl)ccc4s3)cc2C1=O` tested on ZIKV NS5 MTase (Zika virus, UniProt A0A024B7W1).
4.85

Give pIC50 for `CN1C(=O)c2ccc(NC(=O)c3cc4cc([N+](=O)[O-])ccc4o3)cc2C1=O` tested on ZIKV NS5 MTase (Zika virus, UniProt A0A024B7W1).
4.65

Give pIC50 for `Cc1cccc2cc(C(=O)Nc3ccc4c(c3)C(=O)N(C)C4=O)sc12` tested on ZIKV NS5 MTase (Zika virus, UniProt A0A024B7W1).
4.72

Give pIC50 for `O=C(Nc1ccc2c(c1)C(=O)NC2)c1cc2cc([N+](=O)[O-])ccc2s1` tested on ZIKV NS5 MTase (Zika virus, UniProt A0A024B7W1).
4.70

Give pIC50 for `O=C(Nc1ccccc1)c1cc2cc([N+](=O)[O-])ccc2s1` tested on ZIKV NS5 MTase (Zika virus, UniProt A0A024B7W1).
4.24

Give pIC50 for `O=C(Nc1ccc2c(c1)C(=O)NC2=O)c1cc2cc([N+](=O)[O-])ccc2s1` tested on ZIKV NS5 MTase (Zika virus, UniProt A0A024B7W1).
4.28

Give pIC50 for `O=C(Nc1ccc2c(c1)C(=O)NC2)c1cc2ccccc2s1` tested on ZIKV NS5 MTase (Zika virus, UniProt A0A024B7W1).
4.34
